# TARGET_SYSTEM: Serine/threonine-protein kinase Chk1 (Homo sapiens, UniProt O14757); note: in the data inactive means no Kd found up to 30 µM
# Sequence (O14757 whole entry): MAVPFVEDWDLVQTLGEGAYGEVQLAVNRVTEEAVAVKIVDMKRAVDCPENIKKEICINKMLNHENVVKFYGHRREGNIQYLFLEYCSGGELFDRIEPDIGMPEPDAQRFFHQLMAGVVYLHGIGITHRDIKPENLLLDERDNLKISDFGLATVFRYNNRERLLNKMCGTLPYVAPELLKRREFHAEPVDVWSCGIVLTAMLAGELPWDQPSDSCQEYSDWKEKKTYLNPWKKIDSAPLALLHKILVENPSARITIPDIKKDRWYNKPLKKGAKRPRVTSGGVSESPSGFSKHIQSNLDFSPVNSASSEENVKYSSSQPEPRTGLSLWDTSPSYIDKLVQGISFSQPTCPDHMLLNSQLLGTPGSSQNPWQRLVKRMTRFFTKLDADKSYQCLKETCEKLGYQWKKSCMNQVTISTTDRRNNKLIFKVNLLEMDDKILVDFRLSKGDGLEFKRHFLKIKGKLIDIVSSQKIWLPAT
Calls of active or inactive are those of the source.
Thanks in advance; please answer with one of these: 1 (yes) = active, 0 (no) = inactive

Answered examples (5):
MOLECULE: Cc1cc(C(=O)Nc2cc(Oc3ccc4nc(NC(=O)C5CC5)cn4n3)ccc2C)n(C)n1
CATEGORY_LABEL: 0 (no)
//
MOLECULE: NC(=O)c1ccc(N(C(N)=O)c2c(F)cccc2F)nc1-c1ccc(F)cc1F
CATEGORY_LABEL: 0 (no)
//
MOLECULE: NC[C@@](O)(c1ccc(Cl)cc1)c1ccc(-c2cn[nH]c2)cc1
CATEGORY_LABEL: 0 (no)
//
MOLECULE: CNC(=O)c1cc(COc2nnc(Nc3ccc(Cl)cc3)c3ccoc23)ccn1
CATEGORY_LABEL: 0 (no)
//
MOLECULE: N#CCNC(=O)c1ccc(-c2ccnc(Nc3ccc(N4CCOCC4)cc3)n2)cc1
CATEGORY_LABEL: 0 (no)

Enquiry: Just curious, what result did FC(F)(F)c1ccc(CNc2ccc(Cc3c[nH]c4ncc(Cl)cc34)cn2)cn1 get here?
Return: 0 (no)

Enquiry: Field: outcome | Entry: COc1cc2nccc(Oc3ccc(NC(=O)C4(C(=O)Nc5ccc(F)cc5)CC4)cc3)c2cc1OC [CABOZANTINIB]
Return: 0 (no)

Enquiry: Please share the test call associated with O=S(=O)(c1cccc2c(O)nccc12)N1CCCNCC1 [HYDROXYFASUDIL] .
Return: 0 (no)

Enquiry: What did this assay record as the result for CC1(COc2ccc3c(c2)ncn3-c2ccc3cccc(N4CCC(N)CC4)c3n2)COC1 ?
Return: 0 (no)
